This listing pairs compounds with measured IC50.
- tested_system: human metastin receptor hOT7T175 (Homo sapiens, UniProt Q969F8, L364H)
- Construct: encoding the entire length of human metastin receptor hOT7T175; expressed in transfected cells; host or cells: CHO/dhFr- cells (ATCC #CRL-9096) stably transfected with pAKKO-hOT7T175; clone h175-16 was used as whole cells for FLIPR
- Sequence (Q969F8 whole entry L364H): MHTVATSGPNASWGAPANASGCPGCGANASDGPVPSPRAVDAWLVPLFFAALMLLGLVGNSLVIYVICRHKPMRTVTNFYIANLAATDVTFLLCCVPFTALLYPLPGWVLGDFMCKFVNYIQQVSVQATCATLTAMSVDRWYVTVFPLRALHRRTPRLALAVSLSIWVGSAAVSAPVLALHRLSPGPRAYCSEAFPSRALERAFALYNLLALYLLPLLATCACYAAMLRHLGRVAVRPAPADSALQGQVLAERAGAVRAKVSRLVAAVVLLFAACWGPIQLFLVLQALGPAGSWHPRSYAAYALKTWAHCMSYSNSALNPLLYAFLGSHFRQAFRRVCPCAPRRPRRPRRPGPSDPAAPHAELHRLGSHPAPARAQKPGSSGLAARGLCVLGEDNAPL
- run_description: binding inhibiting activity: 125I-metastin (40-54) binding to cell membrane fraction of h175 KB34 cells
- experimental_parameters: room temperature 60 minutes, read-out: binding inhibiting activity, represented by the IC50 value
Structures can show the parent of a compound that is named as a salt.
measurement_name: IC50

>>> df
                                   compound  measurement_name  obs_value
0  N#Cc1c(N2CCCC(C(=O)NCCN)C2)cc(-c2ccccc2O)nc1NC(=O)c1ccco1 (stereo not drawn) [Example 288, hydrochloride]              IC50    ≤ 10 µM
1  C[C@H](N)CC(=O)Nc1cccc(-c2cc(-c3ccc(Cl)cc3O)nc(NC(=O)c3nccs3)c2C#N)c1.Cl [Example 269, hydrochloride]              IC50    ≤ 10 µM
2  N#Cc1c(-c2cccc(NC(=O)[C@H](N)Cc3cnc[nH]3)c2)cc(-c2ccc(Cl)cc2O)nc1NC(=O)c1ccco1 [Example 253, dihydrochloride]              IC50    ≤ 10 µM
